EXPERIMENTAL TARGET: Cytochrome P450 1A2 (Homo sapiens)
TEST DESCRIPTION: Cytochrome panel assay with activity outcomes
EXPERIMENTAL SETUP: recombinant CYP, pro-luciferin dealkylation, luminescence, p450-cyp1a2; series mostly up to 57.1 µM
The campaign covered roughly 16,000 compounds. About 5,700 (36%) were called active. Inconclusive results (about 24%) are left out. Calls come from the whole dose curve; as a rule, active = well fitted curve in the direction sought with a large enough effect; inconclusive = small, poorly fitted or top-dose-only effect, or effect the other way; inactive = no such curve, though single readings can be large or run the other way. The list shows a part of the results.
Possible outcomes: 1.0 = active, 0.0 = inactive

{"COMPOUND": "Cc1nnc(-c2cccc(Br)c2)c2cn(-c3ccccc3Cl)nc12", "ASSIGNED LABEL": 1.0}
{"COMPOUND": "Cc1ccc(S(N)(=O)=O)cc1NC(=O)/C=C/c1cccs1", "ASSIGNED LABEL": 1.0}
{"COMPOUND": "CCOC(=O)C1CCCN(C(=O)/C=C/c2cccc([N+](=O)[O-])c2)C1 (stereo unspecified)", "ASSIGNED LABEL": 1.0}
{"COMPOUND": "N#Cc1ccc(C(=O)Nc2ccc(N3CCN(C(=O)c4ccco4)CC3)cc2)c(F)c1", "ASSIGNED LABEL": 0.0}
{"COMPOUND": "COC(=O)Cn1cc(/C=N/NC(=O)c2ccc(C#N)cc2F)c2ccccc21", "ASSIGNED LABEL": 1.0}
{"COMPOUND": "CCOC(=O)N1N=C(c2ccccc2)CC1(O)C(F)(F)F (stereo unspecified)", "ASSIGNED LABEL": 1.0}
{"COMPOUND": "CC[C@H](C)N(C)C(=O)c1cc2ccccc2c(-c2ccccc2Cl)n1", "ASSIGNED LABEL": 0.0}
{"COMPOUND": "CN1CCN(c2ncc3nc(CCc4ccccc4)c(=O)n(Cc4ccc(F)cc4)c3n2)CC1", "ASSIGNED LABEL": 0.0}
{"COMPOUND": "OCc1ccc(-c2nn(Cc3ccccc3)c3ccccc23)o1", "ASSIGNED LABEL": 1.0}
{"COMPOUND": "COC(=O)Cn1c(CN(Cc2ccccc2)Cc2ccccc2)nc2c1c(=O)[nH]c(=O)n2C", "ASSIGNED LABEL": 0.0}
{"COMPOUND": "Cc1cc(NC(=S)Nc2ccccc2)ccc1Br", "ASSIGNED LABEL": 1.0}
{"COMPOUND": "CCOC(=O)C1C(=O)NC(C)C1c1ccccc1 (stereo unspecified)", "ASSIGNED LABEL": 1.0}
{"COMPOUND": "Cc1cccc(N2CCN(CC(=O)Nc3ccc(-n4cnnn4)cc3)CC2)c1C", "ASSIGNED LABEL": 0.0}
{"COMPOUND": "CN(C)/C=N/c1ncc(C(=O)c2ccc3ccccc3c2)s1", "ASSIGNED LABEL": 1.0}
{"COMPOUND": "Cc1c(N2C(=O)CS/C2=N\\N=C\\c2ccc(Cl)cc2)c(=O)n(-c2ccccc2)n1C", "ASSIGNED LABEL": 0.0}
{"COMPOUND": "O=c1cnc2cnc(N3CCOCC3)nc2n1Cc1cccs1", "ASSIGNED LABEL": 1.0}
{"COMPOUND": "Cc1ccc2c(c1)N(CCC(=O)NCC1CCCO1)C(=O)CO2 (stereo unspecified)", "ASSIGNED LABEL": 0.0}
{"COMPOUND": "N#CC1(Nc2ccc(-c3ccc(NC4(C#N)CCCC4)cc3)cc2)CCCC1", "ASSIGNED LABEL": 1.0}
{"COMPOUND": "COc1ccc(CC(=O)NC(=S)Nc2ccc(S(=O)(=O)NC(C)(C)C)cc2)cc1", "ASSIGNED LABEL": 0.0}
{"COMPOUND": "CCCNC(=S)Nc1ccc(Br)cc1", "ASSIGNED LABEL": 1.0}
{"COMPOUND": "Oc1[nH]c2ccccc2c1/C=N/c1nccs1", "ASSIGNED LABEL": 1.0}
{"COMPOUND": "CN1CCN(c2ncc3nc(CCc4ccccc4)c(=O)n(Cc4cccs4)c3n2)CC1", "ASSIGNED LABEL": 1.0}
{"COMPOUND": "Cc1cc(C)nc(NC(=O)CCCC(=O)O)c1", "ASSIGNED LABEL": 0.0}
{"COMPOUND": "COc1cccc(C(=O)NNC2=CC(=O)CC(C)(C)C2)c1", "ASSIGNED LABEL": 0.0}
{"COMPOUND": "CC(C)(C)NC(=O)Cn1nnc(-c2ccccc2NC(=O)c2cnccn2)n1", "ASSIGNED LABEL": 0.0}
{"COMPOUND": "CCOC(=O)C1CCCN(C/C=C/c2ccccc2[N+](=O)[O-])C1 (stereo unspecified)", "ASSIGNED LABEL": 1.0}
{"COMPOUND": "CC1(C)CC(O)CC(C)(C)N1CC(O)COCCOc1ccc(Br)cc1 (stereo unspecified)", "ASSIGNED LABEL": 0.0}
{"COMPOUND": "CCc1nnc(NC(=O)CCC(=O)NCc2ccccc2OC)s1", "ASSIGNED LABEL": 0.0}
{"COMPOUND": "CC1(CCC#N)N=C(SCCC#N)N(c2ccccc2)C1=O (stereo unspecified)", "ASSIGNED LABEL": 0.0}
{"COMPOUND": "Cc1ccc(NC(=S)Nc2ccc(Br)cc2)cc1", "ASSIGNED LABEL": 1.0}
{"COMPOUND": "O=C(O)[C@H]1CCCN(CCC=C(c2ccccc2)c2ccccc2)C1", "ASSIGNED LABEL": 0.0}
{"COMPOUND": "Cc1cc(C(=O)c2cnc(/N=C/N(C)C)s2)cc(C)c1O", "ASSIGNED LABEL": 1.0}
{"COMPOUND": "CNC(=O)NC(=O)CSc1nnc(-c2ccco2)n1Cc1ccccc1", "ASSIGNED LABEL": 0.0}
{"COMPOUND": "O=C(Nc1ccc(S(=O)(=O)N2CCCCC2)cc1)c1ccc(CN2CCc3ccccc3C2)cc1", "ASSIGNED LABEL": 0.0}
{"COMPOUND": "Cc1cc(C)nc(NC(=O)/C=C/c2ccc(Cl)cc2Cl)c1", "ASSIGNED LABEL": 1.0}
{"COMPOUND": "OC(CN1CCCCC1)CN1CCCCC1", "ASSIGNED LABEL": 0.0}
{"COMPOUND": "CCOC(=O)N1CCN(S(=O)(=O)Cc2ccccc2)CC1", "ASSIGNED LABEL": 0.0}
{"COMPOUND": "CCN(CC)C(=O)Cn1cc(/C=C(\\C#N)C(=O)N2CCN(c3ccccc3)CC2)c2ccccc21", "ASSIGNED LABEL": 0.0}
{"COMPOUND": "CCOC(=O)C1CCCN(S(=O)(=O)c2ccccc2)C1 (stereo unspecified)", "ASSIGNED LABEL": 0.0}
{"COMPOUND": "CS(=O)(=O)Nc1cccc(-c2cncnc2Nc2ccccc2)c1", "ASSIGNED LABEL": 1.0}
{"COMPOUND": "CCOC(=O)C1(C(=O)O)NC(=O)CC1c1ccccc1 (stereo unspecified)", "ASSIGNED LABEL": 0.0}
{"COMPOUND": "O=C1C2CCCN2c2ccc(S(=O)(=O)N3CCOCC3)cc2N1Cc1cccc(C(F)(F)F)c1 (stereo unspecified)", "ASSIGNED LABEL": 0.0}
{"COMPOUND": "CC1CCCN(C/C=C/c2ccccc2[N+](=O)[O-])C1 (stereo unspecified)", "ASSIGNED LABEL": 1.0}
{"COMPOUND": "Cc1ccc(NC(=O)C2C3CCCC2C3c2ccccc2)cc1C (stereo unspecified)", "ASSIGNED LABEL": 0.0}
{"COMPOUND": "Cc1cc(C)n(C(=O)c2cc3ccccc3c(=O)o2)n1", "ASSIGNED LABEL": 1.0}
{"COMPOUND": "Cc1cc(NC(=S)NC(=O)CC(C)C)ccc1Br", "ASSIGNED LABEL": 1.0}
